- assay.details: self-splicing fitness, log relative to wild type (ln ratio); higher = more splicing; Tetrahymena group I intron in knt gene, E. coli kanamycin selection, DiMSum; sequences stand for … in CUCUCU…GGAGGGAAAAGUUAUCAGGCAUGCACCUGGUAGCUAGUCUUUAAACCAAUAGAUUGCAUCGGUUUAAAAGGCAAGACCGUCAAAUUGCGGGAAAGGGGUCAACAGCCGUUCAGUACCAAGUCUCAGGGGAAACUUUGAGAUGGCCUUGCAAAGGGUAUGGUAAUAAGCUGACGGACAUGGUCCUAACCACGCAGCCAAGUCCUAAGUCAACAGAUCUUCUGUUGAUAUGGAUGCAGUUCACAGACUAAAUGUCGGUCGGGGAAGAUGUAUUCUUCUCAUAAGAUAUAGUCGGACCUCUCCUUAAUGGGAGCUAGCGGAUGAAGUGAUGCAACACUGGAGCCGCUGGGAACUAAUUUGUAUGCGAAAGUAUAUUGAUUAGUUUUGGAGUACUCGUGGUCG;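 further: selection with 25 µg/mL kanamycin versus none on LB agar overnight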
- reported.conditions: 30 °C
Measured self-splicing fitness (ln) values are reported for all entries that follow.
Form field (numeric): enter value without unit.

Known self-splicing fitness (ln) results, listed for orientation:
record.sequence: UGCCAGCAAUAUUACGUCUU
test.value: -2.22

record.sequence: UUGAAGCAAUAUUACGCCCA
test.value: 0.429

record.sequence: CAGUAGCAAUAUUACGCCAU
test.value: -0.742

record.sequence: UGCAAGCAAUAUUACGACGG
test.value: -0.954

record.sequence: GCCGAGCAAUAUUACGAAGG
test.value: -3.25

record.sequence: CCCGAGCAAUAUUACGCAAU
test.value: -3.57

record.sequence: GGAUAGCAAUAUUACGAGAU
test.value: -3.46

Turning now to a further record.
Data request, read-out self-splicing fitness (ln), for GACUAGCAAUAUUACGAUGG
-3.49

----------
Parameter: self-splicing fitness (ln). Scope: all listed entries.
- assay.details: self-splicing fitness, log relative to wild type (ln ratio); higher = more splicing; Tetrahymena group I intron in knt gene, E. coli kanamycin selection, DiMSum; sequences stand for … in CUCUCU…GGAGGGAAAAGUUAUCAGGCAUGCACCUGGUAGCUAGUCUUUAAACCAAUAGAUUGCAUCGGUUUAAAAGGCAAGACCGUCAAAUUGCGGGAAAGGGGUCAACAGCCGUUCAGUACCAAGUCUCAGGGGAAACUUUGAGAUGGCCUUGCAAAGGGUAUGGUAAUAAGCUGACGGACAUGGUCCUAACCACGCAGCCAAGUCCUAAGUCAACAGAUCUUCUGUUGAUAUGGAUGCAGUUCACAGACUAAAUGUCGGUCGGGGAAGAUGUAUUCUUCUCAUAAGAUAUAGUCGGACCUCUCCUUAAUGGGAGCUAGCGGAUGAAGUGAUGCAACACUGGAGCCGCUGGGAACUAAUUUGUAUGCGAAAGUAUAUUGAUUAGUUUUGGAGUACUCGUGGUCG
- reported.conditions: 37 °C
Could you keep your reply to the number by itself?

record.sequence: UGCUAGCAAUAUUACGAUCG
self-splicing fitness (ln): 0.439

State the recorded self-splicing fitness (ln) for this entry: CGAUAGCAAUAUUACGCAGC
-1.34

Quick one: self-splicing fitness (ln) of UGAUAGCAAUAUUACGGUGA ?
-0.637

Form field: reported self-splicing fitness (ln) of AGAUAGCAAUAUUACGAUAC
-0.943

Look up self-splicing fitness (ln): GAUCAGCAAUAUUACGGCAU
0.0262

Fill in the blank: the reported self-splicing fitness (ln) of ACGUAGCAAUAUUACGUCGC is ____.
-1.91

Field request: self-splicing fitness (ln) | item: ACAGAGCAAUAUUACGAAAG
-1.46

Find the recorded self-splicing fitness (ln) belonging to GGUCAGCAAUAUUACGAUGC and report it.
0.43

Suppose we examine the sequence CUCCAGCAAUAUUACGCUUC ; what self-splicing fitness (ln) value has been reported?
-2.27

----------
- assay.details: self-splicing fitness, log relative to wild type (ln ratio); higher = more splicing; Tetrahymena group I intron in knt gene, E. coli kanamycin selection, DiMSum; sequences stand for … in CUCUCU…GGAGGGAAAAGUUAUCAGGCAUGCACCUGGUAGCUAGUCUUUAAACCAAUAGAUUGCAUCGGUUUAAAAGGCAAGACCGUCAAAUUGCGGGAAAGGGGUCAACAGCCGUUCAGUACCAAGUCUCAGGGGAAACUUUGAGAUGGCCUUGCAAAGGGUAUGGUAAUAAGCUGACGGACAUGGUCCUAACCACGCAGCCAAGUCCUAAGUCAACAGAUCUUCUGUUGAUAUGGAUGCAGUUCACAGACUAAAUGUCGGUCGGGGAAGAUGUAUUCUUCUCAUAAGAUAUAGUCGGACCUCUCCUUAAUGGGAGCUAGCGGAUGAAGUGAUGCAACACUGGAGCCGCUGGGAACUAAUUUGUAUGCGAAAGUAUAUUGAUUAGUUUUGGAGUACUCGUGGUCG
- reported.conditions: 37 °C
Kindly return MET if reported self-splicing fitness (ln) is no lower than -1; return NOT MET if it is lower.

Solved cases below.
record.sequence: AUUAAGCAAUAUUACGAGGC
group.label: NOT MET
--
record.sequence: UUCGAGCAAUAUUACGUUGG
group.label: NOT MET
--
record.sequence: CCCGAGCAAUAUUACGUCCG
group.label: NOT MET
--
record.sequence: GAGAAGCAAUAUUACGACUG
group.label: MET

Please tell me: is the sequence AAGGAGCAAUAUUACGCCGG at or over -1 in terms of self-splicing fitness (ln)?
NOT MET

Form field: self-splicing fitness (ln) at least -1? Entry: GCAAAGCAAUAUUACGGGGG
NOT MET

Hi team, for AUUUAGCAAUAUUACGUAAG , is the recorded self-splicing fitness (ln) at or above -1?
MET

Hi team, for AGACAGCAAUAUUACGUGUU , is the recorded self-splicing fitness (ln) at or above -1?
NOT MET

Check this sequence for self-splicing fitness (ln) at or above -1: CAGGAGCAAUAUUACGAUAG
MET

Please indicate if the recorded self-splicing fitness (ln) for AACUAGCAAUAUUACGCGGA meets or exceeds -1.
NOT MET

Test whether the sequence UAAGAGCAAUAUUACGCGGU records self-splicing fitness (ln) of -1 or higher.
NOT MET

Determine whether measured self-splicing fitness (ln) meets or exceeds -1 for CAGAAGCAAUAUUACGUCCG
MET

Given CGAAAGCAAUAUUACGGAUU , state whether its self-splicing fitness (ln) is at least -1.
NOT MET

Please check the record UGGGAGCAAUAUUACGUUAG and state if its self-splicing fitness (ln) is at or above -1.
NOT MET

Confirm if self-splicing fitness (ln) reported for the sequence AACGAGCAAUAUUACGCAAG is -1 or above.
NOT MET

I'd appreciate it if you could say whether AGCAAGCAAUAUUACGAAUC has self-splicing fitness (ln) at least equal to -1.
NOT MET

Check the entry GUAGAGCAAUAUUACGUCCC : does self-splicing fitness (ln) equal or exceed -1?
MET

Record GCUAAGCAAUAUUACGGCCA ; criterion: self-splicing fitness (ln) no lower than -1. Met?
NOT MET

----------
- assay.details: self-splicing fitness, log relative to wild type (ln ratio); higher = more splicing; Tetrahymena group I intron in knt gene, E. coli kanamycin selection, DiMSum; sequences stand for … in CUCUCU…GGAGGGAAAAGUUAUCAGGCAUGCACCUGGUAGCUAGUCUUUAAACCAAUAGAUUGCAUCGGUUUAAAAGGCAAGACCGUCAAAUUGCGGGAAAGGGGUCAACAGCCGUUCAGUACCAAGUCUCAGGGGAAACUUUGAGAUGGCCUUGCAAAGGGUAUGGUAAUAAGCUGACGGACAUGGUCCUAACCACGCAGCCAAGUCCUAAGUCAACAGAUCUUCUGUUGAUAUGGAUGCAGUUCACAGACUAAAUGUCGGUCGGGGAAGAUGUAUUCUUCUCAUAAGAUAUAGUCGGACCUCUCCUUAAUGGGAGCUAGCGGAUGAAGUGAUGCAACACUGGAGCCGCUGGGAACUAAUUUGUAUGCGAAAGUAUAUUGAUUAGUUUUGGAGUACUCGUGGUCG
- reported.conditions: 30 °C
Entries and their self-splicing fitness (ln)
Write no unit; give the number alone.

record.sequence: CGGGAGCAAUAUUACGCUGG
self-splicing fitness (ln): -4.21

Please examine the following record next.
Endpoint output: self-splicing fitness (ln) of CGAGAGCAAUAUUACGCAUA . Value?
-2.12

----------
- assay.details: self-splicing fitness, log relative to wild type (ln ratio); higher = more splicing; Tetrahymena group I intron in knt gene, E. coli kanamycin selection, DiMSum; sequences stand for … in CUCUCU…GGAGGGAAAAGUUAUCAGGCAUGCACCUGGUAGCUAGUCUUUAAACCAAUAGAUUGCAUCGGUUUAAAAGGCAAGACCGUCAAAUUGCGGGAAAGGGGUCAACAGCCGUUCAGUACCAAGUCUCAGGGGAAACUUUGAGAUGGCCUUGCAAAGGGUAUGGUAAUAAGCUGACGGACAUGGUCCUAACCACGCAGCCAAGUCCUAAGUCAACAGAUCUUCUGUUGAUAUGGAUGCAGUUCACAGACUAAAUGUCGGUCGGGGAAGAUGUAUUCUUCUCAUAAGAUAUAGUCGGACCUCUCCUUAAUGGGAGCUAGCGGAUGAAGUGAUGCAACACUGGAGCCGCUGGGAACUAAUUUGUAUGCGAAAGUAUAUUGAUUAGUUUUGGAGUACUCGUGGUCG
- reported.conditions: 37 °C
experimental.readout: self-splicing fitness (ln)
Write no unit; give the number alone.

record.sequence: UCGGAGCAAUAUUACGGUUC
self-splicing fitness (ln): -2.89

record.sequence: UCCAAGCAAUAUUACGCGUA
self-splicing fitness (ln): 0.286

record.sequence: CUGAAGCAAUAUUACGGAAG
self-splicing fitness (ln): -0.636

record.sequence: UGUCAGCAAUAUUACGGAUC
self-splicing fitness (ln): -0.775

record.sequence: ACACAGCAAUAUUACGUAUC
self-splicing fitness (ln): -2.8

record.sequence: ACUAAGCAAUAUUACGCAUC
self-splicing fitness (ln): -1.54

Look up self-splicing fitness (ln): UUUUAGCAAUAUUACGCACA
-0.107

Bench note: what self-splicing fitness (ln) did ACUCAGCAAUAUUACGCUGG show?
-2.86

Cited source: the supplement of paper PMC7877785
